METHOD NOTES: physchem
RECORDED CONDITIONS: octan-1-ol/water, pH 7.4, LogD7.4
QUANTITY: logD

- CC(C)N(CCNCCc1ccc(O)c2[nH]c(=O)sc12)C(=O)CCOCCc1ccccc1: 2.33
- COc1ccc(NC(=O)c2nnc(Nc3ccccc3F)o2)cn1: 3.2
- COc1ccc(Nc2ccccc2C(=O)O)cc1: 1.2
- CCC(=O)N[C@H]1CC[C@@H](C(=O)N(C)c2ccc(-c3nc4ccccc4o3)cc2)C1 [BI 99179]: 3.4
- Nc1[nH]ncc1S(=O)(=O)c1ccccc1: 1.1
- Nc1nccc(-c2cccs2)n1: 1.75
- Cc1ncc(-c2ccnc(Nc3ccccc3)n2)n1C(C)C: 3.58
- O=C(O)C[C@H]1CC[C@H](c2ccc(-c3ccc(Nc4ccc(C(F)(F)F)nc4)cn3)cc2)CC1: 3.8
- CC[C@H]1CN(Cc2cc(Cl)ccc2OCC(=O)O)CCN1S(=O)(=O)c1ccccc1: 0.44
- Cn1cc(C#N)cc1-c1c2c(=O)n(CC#N)c(=O)n(CC3CC3)c2nn1Cc1ccnc2ccc(Cl)cc12: 3.33
- Oc1cc(-c2ccccc2)nc2ncnn12: -0.21
- COc1ccc2c(c1)N(CCN1CCC(NCc3ccc4c(n3)NC(=O)CO4)CC1)C(=O)CC2: 0.66
- Clc1cccc2cn[nH]c12: 2.33
- COc1cc(CCc2cc(Nc3ccnc(NCc4cc(C)no4)n3)n[nH]2)cc(OC)c1: 3.1
- Nc1nc(NCc2ccccc2)nc2c1nc(O)n2Cc1ccccc1: 3.69
- Cc1c(Sc2ccc(Cl)cc2)c2ccc(S(C)(=O)=O)cc2n1CC(=O)O: 0.79
- O=C(Nc1ccccc1)c1ccc(OCCCN2CCCC2)cc1OCc1ccccc1F: 3.85
- O=C(Nc1ccccc1)c1cc(Cl)ccc1O: 2.9
- O=S(=O)(Nc1cc(F)ccc1F)c1ccc(Cl)cc1: 2.9
- COc1ccc(-c2c(-c3ccc(O)cc3O)n[nH]c2C)cc1: 3.37
- O=C(c1ccc(-c2nc(=O)o[nH]2)cc1)N1CCC(N2CCC(Oc3ccc(Cl)c(Cl)c3)CC2)CC1: 2.24
- COC(=O)COc1ccc(OCCNCC(O)COc2ccccc2)cc1 (stereo not drawn): 1.54
- CN(C)c1cccc2c(S(=O)(=O)Nc3cnccn3)cccc12: 0.9

====

Reported logD values follow for various molecules
METHOD NOTES: physchem
RECORDED CONDITIONS: octan-1-ol/water, pH 7.4, LogD7.4
QUANTITY: logD

• O=c1cc(-c2ccccc2)oc2cc(O)cc(O)c12 [CHRYSIN] = 3.83
• OCC[C@]1(c2ccc(Cl)c(Cl)c2)CCCNC1 = 0.61
• Oc1cc(-c2ccccc2)nc2ccccc12 = 2.54
• CC(O)(C(=O)Nc1ccc(S(=O)(=O)c2ccc(O)cc2)cc1)C(F)(F)F (stereo not given) = 2.78
• c1ccc(-c2[nH]nc3ccccc23)cc1 = 3.79
• Cn1cncc1-c1c2c(=O)n(C)c(=O)n(CC3CC3)c2nn1Cc1ccnc2ccc(Cl)cc12 = 2.69
• CO[C@H]1CC[C@]2(CC1)Cc1ccc(-c3cncc(Br)c3)cc1C21N=C(C)C(N)=N1 (stereo not given in full) = 3.4
• CNC(=O)C1(N2CCCCC2=O)CCN(CC[C@H](CN(C)C(=O)c2cc(C#N)cc3ccccc23)c2ccc(Cl)c(Cl)c2)CC1 = 2.5
• CNC(=O)C1(N2CCCNC2=O)CCN(CC[C@H](CN(C)C(=O)c2c(OC)c(C#N)cc3ccccc23)c2ccc(Cl)c(Cl)c2)CC1 = 2.2
• O=C(N[C@H]1Cc2ccccc2N(C[C@H](O)CO)C1=O)c1cc2cc(Cl)sc2[nH]1 = 3.27

====

METHOD NOTES: in vitro
RECORDED CONDITIONS: Dunkin Hartley, guinea pig, plasma
Collected fraction unbound at 5 h values appear next to each entry.
QUANTITY: fraction unbound at 5 h

* COc1ccc(CC(=O)NCc2ccccc2-c2ccccc2C(=O)NCCc2cccnc2)cc1 | 0.17
* N#Cc1ccc2ccc(=O)n(CCN3CC[C@@H](NCc4ccc5c(n4)NC(=O)CO5)[C@@H](F)C3)c2c1 | 0.715
* CN(C)c1nc(Cc2ccc(NC(=O)c3ccc(C(F)(F)F)cc3)cc2)nc(N(C)C)c1CC(=O)O | 0.0437
* C[C@@](C(=O)O[C@H]1C[N+]2(CCc3ccccc3F)CCC1CC2)(c1ccccc1)N1CCCCC1 | 0.194

====

METHOD NOTES: physchem
RECORDED CONDITIONS: octan-1-ol/water, pH 7.4, LogD7.4
Label YES when logD is at or above 3; anything below gets NO.

* O=c1c(-c2ccc([N+](=O)[O-])cc2)coc2cc(O)cc(O)c12 | YES
* CCn1nc(C)c(C(=O)N[C@@H](C)C(C)(C)C)c1NS(=O)(=O)c1ccc(C)cc1 | NO
* CCC(c1nc2ccn(C)c2c(=O)n1Cc1ccccc1)N(CCCN)C(=O)c1ccc(C)cc1 (stereo not given) | NO
* Cc1nccn1CCC(C(N)=O)(c1ccccc1)c1ccccc1 | NO
* CC(C)(C)NS(=O)(=O)c1cncc(-c2ccc3nc(N)nn3c2)c1 | NO
* N#Cc1ccc2ccc(=O)n(CCN3CC[C@H](NCc4cc5c(cn4)OCCO5)[C@H](O)C3)c2c1 | NO
* COc1ccc2nc(C)cc(-n3cc(CNC(C)=O)nn3)c2c1 | NO
* O=c1[nH]c2c(O)ccc([C@@H](O)CNCCc3ccc(CNCCc4ccccc4F)cc3)c2s1 | NO
* CC(CN1c2ccccc2Sc2ccccc21)N(C)C (stereo not given) | NO
* CN(C)CCN(Cc1ccccc1)c1ccccn1 | NO
* CCCSc1nc(Oc2ccc(CC(=O)O)cc2)ccc1C(=O)NC1CCCCC1 | NO
* Cc1cccc(-c2nc3cc(Cl)ccc3[nH]2)n1 | YES
* C[C@H](CO)n1ccc2c(NC(=O)Cc3ccc(Cl)c(C(F)(F)F)c3)cccc2c1=O | YES
* C#CC(C)n1c(=O)c2c(-c3cncn3C)n(Cc3ccnc4ccc(Cl)cc34)nc2n(CC2CC2)c1=O (stereo not given) | YES
* Cc1ncc(-c2nc(Nc3ccc(C(=O)N4CC[C@H](N(C)C)C4)cc3)ncc2F)n1C(C)C | NO
* O=C1CCOc2nc(COc3ccccc3)ccc21 | NO
* COC(=O)CCCCCCC(=O)Nc1ccc2c(c1)-c1ccccc1C(=O)C2=O | NO
* CC(NCC(O)c1ccc([N+](=O)[O-])cc1)C12CC3CC(CC(C3)C1)C2 (stereo not given) | YES
* COCCOc1ccc(Nc2ncc3cc(-c4ccncc4)ccc3n2)cc1 | YES

====

METHOD NOTES: in vitro
RECORDED CONDITIONS: hepatocytes
QUANTITY: hepatocyte CLint (µL/min/1e6 cells)

* Cn1sc(=O)c2cc(S(N)(=O)=O)ccc21 | 17.4
* CC(C)(CCCCCOCCc1ccccc1)NCCc1ccc(O)c2nc(O)sc12 | 93
* Cc1nn(-c2ccc(F)cc2)c(NS(=O)(=O)c2cccnc2)c1C(=O)N[C@@H](C)C(C)(C)C | 12
* CC(C)Oc1ccc2c(=O)c(-c3ccccc3)coc2c1 | 110
* Cc1ccc(S(=O)(=O)Nc2c(C(=O)N[C@@H](C)C(C)(C)C)c(C)nn2C2CCCC2)cc1 | 8
* O=C(NCc1ccccc1)c1ccc2cccnc2c1O | 22.8
* Cc1cccc(NC(=O)Nc2cccc3ccccc23)c1 | 91.2

====

METHOD NOTES: in vitro
RECORDED CONDITIONS: human, hepatocytes
Quick reference: hepatocyte CLint of the listed items.
QUANTITY: hepatocyte CLint (µL/min/1e6 cells)

* O=C(CCCc1ccc2cccnc2n1)NCc1cc(-c2ccc(F)c(C(F)(F)F)c2)no1 | 19.9
* CC(C)C[C@H](CO)Nc1nc(S[C@@H](C)c2ccccc2F)nc2nc(N)sc12 | 30.9
* COc1ccccc1Oc1c(NS(=O)(=O)c2ccc(C(C)(C)C)cc2)nc(-c2ncccn2)nc1OCCO | 4.79
* Clc1ccc(COc2ccc(Br)cc2CN2CCOCC2)cc1 | 55
* CC(C)C[C@H](CO)Nc1nc(SCc2ccccc2)nc2[nH]c(=O)sc12 | 13.5
* NC1(c2ccc(-c3nc4ccccn4c3-c3ccccc3)cc2)CCC1 | 18.2
* NC1(c2ccc(-c3c(-c4ccccc4)ccc4ccnn34)cc2)CCC1 | 10.2
* CCC1=C(C)CN(C(=O)NCCc2ccc(S(=O)(=O)NC(=O)N[C@H]3CC[C@H](C)CC3)cc2)C1=O [GLIMEPIRIDE] | 23.2
* COc1ccc(CCN2C(=O)N(NS(C)(=O)=O)C[C@H]2c2ccc(OC)cc2)cc1 | 21.9
* CN(C)c1nc(Cc2ccc(NC(=O)c3ccc(C(F)(F)F)cc3)cc2)nc(N(C)C)c1CC(=O)O | 4.47
* COc1cc(N2CC3CNCC(C2)O3)ccc1Nc1ncc(Cl)c(-c2cnc3ccccn23)n1 | 13.8
* CCCN1CCCC[C@H]1C(=O)Nc1c(C)cccc1C | 15.5
* CC(C)(N)C(=O)N[C@H](COCc1ccccc1)C(=O)N1CCC2(CC1)CN(S(C)(=O)=O)c1ccccc12 | 14.4
* O=c1[nH]c2c(O)ccc([C@@H](O)CNCCCSCCOCCc3cccc4ccccc34)c2s1 | 14.8
* Cc1cccc(-c2ccc(CNC(=O)CCCc3ccc4cccnc4n3)cc2)c1 | 60.3
* COc1cccc2c1c(NS(=O)(=O)c1ccc(Cl)s1)nn2Cc1cccc(CNC(=O)[C@H]2COCCN2)c1 | 16
* CC/C(=C(/c1ccc(O)cc1)c1ccc(/C=C/C(=O)O)cc1)c1ccccc1 | 55
* CCOC(=O)/C=C/[C@H](C[C@@H]1CCNC1=O)NC(=O)[C@@H](CC(=O)[C@@H](NC(=O)c1cc(C)on1)C(C)C)Cc1ccc(F)cc1 | 40.7
* Cc1ccc(-n2c(C)cc(/C=C3\SC(=O)NC3=O)c2C)cc1 | 17.8
* COc1ccc([C@@H]2Sc3ccccc3N(CCN(C)C)C(=O)[C@@H]2OC(C)=O)cc1 | 9.33
* CCN(CC)CCN1C(=O)C(O)(c2ccccc2Cl)c2c1cc(C(N)=O)cc2C(F)(F)F (stereo not drawn) | 15.1
* CC(C)(C)NC(=O)NCCN1CCN(CC(=O)NC23CC4CC(CC(C4)C2)C3)CC1 | 33.9
* Cc1ncc2n1-c1ccc(Cl)cc1C(c1ccccc1F)=NC2 | 32.4
* O=C1NC(=O)C(=CC=Cc2ccccc2)S1 | 10.5
* NC1(c2ccc(-c3nn4ccnc4cc3-c3ccccc3)cc2)CCC1 | 7.76
